# System: HDAC6 human recombinant (Homo sapiens (Human), UniProt Q9UBN7)
# Sequence (Q9UBN7 whole entry): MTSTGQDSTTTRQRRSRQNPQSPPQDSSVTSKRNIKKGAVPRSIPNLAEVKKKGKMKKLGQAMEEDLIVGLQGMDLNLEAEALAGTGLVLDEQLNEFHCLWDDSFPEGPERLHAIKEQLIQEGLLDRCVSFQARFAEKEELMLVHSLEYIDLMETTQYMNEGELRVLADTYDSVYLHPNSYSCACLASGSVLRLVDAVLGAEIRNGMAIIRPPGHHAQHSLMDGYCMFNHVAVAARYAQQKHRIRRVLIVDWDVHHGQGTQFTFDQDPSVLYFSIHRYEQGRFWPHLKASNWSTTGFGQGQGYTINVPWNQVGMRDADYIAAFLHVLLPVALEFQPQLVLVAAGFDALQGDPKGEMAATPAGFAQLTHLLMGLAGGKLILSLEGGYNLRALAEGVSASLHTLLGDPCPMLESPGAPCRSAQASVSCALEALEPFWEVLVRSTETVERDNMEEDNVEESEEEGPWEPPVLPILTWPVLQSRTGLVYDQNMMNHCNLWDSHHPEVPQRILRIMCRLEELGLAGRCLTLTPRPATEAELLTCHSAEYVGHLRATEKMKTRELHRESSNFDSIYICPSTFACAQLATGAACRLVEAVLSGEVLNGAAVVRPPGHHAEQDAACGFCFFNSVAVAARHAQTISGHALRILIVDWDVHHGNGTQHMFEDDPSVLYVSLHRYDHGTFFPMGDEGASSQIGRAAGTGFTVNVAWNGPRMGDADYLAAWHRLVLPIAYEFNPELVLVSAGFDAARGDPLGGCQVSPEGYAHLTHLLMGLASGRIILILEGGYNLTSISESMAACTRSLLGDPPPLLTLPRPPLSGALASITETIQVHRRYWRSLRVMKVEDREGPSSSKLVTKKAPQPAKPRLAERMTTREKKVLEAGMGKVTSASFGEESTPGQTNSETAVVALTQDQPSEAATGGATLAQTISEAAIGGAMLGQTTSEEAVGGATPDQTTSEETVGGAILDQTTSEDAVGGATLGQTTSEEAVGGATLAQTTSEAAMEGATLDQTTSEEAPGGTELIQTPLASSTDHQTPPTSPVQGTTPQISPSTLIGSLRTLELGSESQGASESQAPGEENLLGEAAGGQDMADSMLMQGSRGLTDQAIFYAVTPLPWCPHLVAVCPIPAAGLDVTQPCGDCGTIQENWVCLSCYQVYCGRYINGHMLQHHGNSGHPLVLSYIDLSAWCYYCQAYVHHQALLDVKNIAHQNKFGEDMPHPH
# Assay remarks: HDAC6 enzyme activity inhibition (fluorimetric, in vitro)
# Condition parameters: samples at 0.1, 1, 10, 100 and 1000 nM; 37° C. 60 minutes

- Entry smiles: "CC1(C)C(=O)N(Cc2ccc(-c3nnc(C(F)F)o3)cn2)C(=O)N1c1cccc(Br)c1"
  Unit string: "µM"
  IC50: 0.056
- Entry smiles: "CC(C)(C)OC(=O)N1CCC2(CC1)C(=O)N(Cc1ccc(-c3nnc(C(F)F)o3)cn1)C(=O)N2c1cccc(F)c1"
  Unit string: "µM"
  IC50: 0.206
- Entry smiles: "CC1(C)C(=O)N(Cc2ccc(-c3nnc(C(F)F)o3)cn2)C(=O)N1c1c(F)cccc1F"
  Unit string: "µM"
  IC50: 0.027
- Entry smiles: "CC1(C)C(=O)N(Cc2ccc(-c3nnc(C(F)F)o3)cn2)C(=O)N1c1ccc(F)cc1"
  Unit string: "µM"
  IC50: 0.06
- Entry smiles: "CC(=O)N1CCc2c1cccc2N1C(=O)N(Cc2ccc(-c3nnc(C(F)F)o3)cn2)C(=O)C1(C)C"
  Unit string: "µM"
  IC50: 0.068
- Entry smiles: "CC1(C)C(=O)N(Cc2ccc(-c3nnc(C(F)F)o3)cn2)C(=O)N1c1ccc(F)cc1F"
  Unit string: "µM"
  IC50: 0.056
- Entry smiles: "CC1(C)C(=O)N(Cc2ccc(-c3nnc(C(F)F)o3)cn2)C(=O)N1c1cccc2[nH]ccc12"
  Unit string: "µM"
  IC50: 0.055

###

# System: HDAC6 human recombinant (Homo sapiens (Human))
# Assay remarks: HDAC6 enzyme activity inhibition (fluorimetric, in vitro)
# Condition parameters: samples at 0.1, 1, 10, 100 and 1000 nM; 37° C. 60 minutes
pIC50: −log10 of the molar value.
Could you label it label 1 if measured pIC50 is 7 or higher, and label 0 otherwise?

- Compound: "CC(C)N1CC2(C1)C(=O)N(Cc1ccc(-c3nnc(C(F)F)o3)cn1)C(=O)N2c1ccccc1 [Compound 22]"
  Class: "label 0"
- Compound: "CC1(C)C(=O)N(Cc2ccc(-c3nnc(C(F)F)o3)cn2)C(=O)N1c1cccc([N+](=O)[O-])c1 [Compound 34]"
  Class: "label 1"
- Compound: "CC1(C)C(=O)N(Cc2ccc(-c3nnc(C(F)F)o3)cn2)C(=O)N1c1cccc2c1CCN2 [Compound 33]"
  Class: "label 1"

###

Form field: pIC50 (one value per entry).
# System: HDAC6 human recombinant (Homo sapiens (Human), UniProt Q9UBN7)
# Assay remarks: HDAC6 enzyme activity inhibition (fluorimetric, in vitro)
# Condition parameters: samples at 0.1, 1, 10, 100 and 1000 nM; 37° C. 60 minutes
pIC50: −log10 of the molar value.

- Entry smiles: "CC1(C)C(=O)N(Cc2ccc(-c3nnc(C(F)F)o3)cn2)C(=O)N1c1ccc(F)c(F)c1"
  pIC50: 6.85
- Entry smiles: "CC1(C)C(=O)N(Cc2ccc(-c3nnc(C(F)F)o3)cn2)C(=O)N1c1ccc(-c2cccnc2)cc1"
  pIC50: 7.26
- Entry smiles: "CC1(C)C(=O)N(Cc2ccc(-c3nnc(C(F)F)o3)cn2)C(=O)N1c1ccc(-c2ccoc2)cc1"
  pIC50: 6.97
- Entry smiles: "CC1(C)C(=O)N(c2ccccc2)C(=O)N1Cc1ccc(-c2nnc(C(F)F)o2)cc1F"
  pIC50: 6.18
